# Assay Info: in vivo
# Run Conditions: male, C57BL/6, mouse, inhaled or intranasal, 30 mg/kg
Parameter Measured: bioavailability

*Q* Given COc1cc(C(=O)O[C@@H]2Cc3c(O)cc(O)cc3O[C@H]2c2cc(O)c(O)c(O)c2)c(F)c(O)c1O [Compound 68] , state its recorded bioavailability.
*A* > 100%

---

# Experimental Target: PDE3A (Homo sapiens (Human), UniProt Q14432)
# Sequence (Q14432 whole entry): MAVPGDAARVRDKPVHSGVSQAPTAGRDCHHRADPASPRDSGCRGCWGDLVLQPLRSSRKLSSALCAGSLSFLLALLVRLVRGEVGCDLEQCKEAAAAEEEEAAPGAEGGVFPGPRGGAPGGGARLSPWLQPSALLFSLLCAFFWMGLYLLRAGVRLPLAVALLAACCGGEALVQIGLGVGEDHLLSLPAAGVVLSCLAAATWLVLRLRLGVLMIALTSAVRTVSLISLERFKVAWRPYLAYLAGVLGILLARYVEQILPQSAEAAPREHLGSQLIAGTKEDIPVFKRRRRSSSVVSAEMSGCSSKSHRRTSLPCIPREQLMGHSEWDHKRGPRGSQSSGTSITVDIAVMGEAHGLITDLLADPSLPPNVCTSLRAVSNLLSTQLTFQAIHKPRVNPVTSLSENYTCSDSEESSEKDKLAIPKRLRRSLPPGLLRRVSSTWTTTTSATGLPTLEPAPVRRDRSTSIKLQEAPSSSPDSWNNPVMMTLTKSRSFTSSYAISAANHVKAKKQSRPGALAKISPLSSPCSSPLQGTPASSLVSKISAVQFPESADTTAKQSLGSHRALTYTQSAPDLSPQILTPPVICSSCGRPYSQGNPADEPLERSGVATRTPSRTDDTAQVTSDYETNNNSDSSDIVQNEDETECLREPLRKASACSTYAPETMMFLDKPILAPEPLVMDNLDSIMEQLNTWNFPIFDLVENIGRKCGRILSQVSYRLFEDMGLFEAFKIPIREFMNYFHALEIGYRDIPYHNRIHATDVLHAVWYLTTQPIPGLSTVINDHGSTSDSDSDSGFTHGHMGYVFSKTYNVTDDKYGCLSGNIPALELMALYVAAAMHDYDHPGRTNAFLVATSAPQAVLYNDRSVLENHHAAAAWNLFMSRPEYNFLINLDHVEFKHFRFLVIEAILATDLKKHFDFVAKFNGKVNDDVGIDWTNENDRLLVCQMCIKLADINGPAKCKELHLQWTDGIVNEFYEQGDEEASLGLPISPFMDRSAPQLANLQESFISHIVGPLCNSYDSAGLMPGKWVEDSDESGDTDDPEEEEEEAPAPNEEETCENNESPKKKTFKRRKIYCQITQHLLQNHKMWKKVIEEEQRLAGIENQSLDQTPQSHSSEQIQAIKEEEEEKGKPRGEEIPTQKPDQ
Parameter Measured: IC50 (nM)
Your answer should be a plain number; it is taken to be in nM.

*Q* Short answer please: IC50, PDE3A (Homo sapiens (Human), UniProt Q14432), entry COc1cc(C(=O)O[C@@H]2Cc3c(O)cc(O)cc3O[C@H]2c2cc(O)c(O)c(O)c2)c(F)c(O)c1O [Compound 68]
*A* 380

From: patent US20240336588A1
